# Test system: retinal precursor cells
# procedure_details: Sphere passaging and high-throughput drug screening: proliferation of retinal precursor cells from the ciliary epithelium, cell number after one week
# Type: cell-based, mammalian
# test_parameters: within one week, over control
readout_kind: increase of cell proliferation (%)

{"columns": ["molecule", "obs_value"],
 "data": [
  ["COc1cc(NC(=O)C2CCOc3ccccc32)ccc1-c1cnco1 (racemic)", 40],
  ["O=C(Nc1ccc(-c2cnco2)c(Cl)c1)C1COc2ccc(Cl)cc2C1 (racemic)", 58],
  ["O=C(Nc1ccc(-c2cnco2)c(Cl)c1)C1COc2ccccc2C1 (racemic)", 79],
  ["COc1cc(NC(=O)C2COc3ccccc3C2)ccc1-c1cnco1 (racemic)", 130],
  ["COc1ccc2c(c1)CC(C(=O)Nc1ccc(-c3ccncc3)c(OC)c1)CO2 (racemic)", 43],
  ["COc1ccc2c(c1)CC(C(=O)Nc1ccc(-c3cnco3)c(OC)c1)CO2 (racemic)", 96]
]}
